molecular target: Aspartate--tRNA(Asp/Asn) ligase (Mycobacterium tuberculosis (strain ATCC 25618 / H37Rv)) (UniProt P9WFW3); test: Assay for Asp RNA synthetase-1 from Mycobacterium tuberculosis; assay type: functional; parameters: scale not given: in the data most compounds retested in dose-response had high values; conditions: 30 µM
Sequence (P9WFW3 whole entry): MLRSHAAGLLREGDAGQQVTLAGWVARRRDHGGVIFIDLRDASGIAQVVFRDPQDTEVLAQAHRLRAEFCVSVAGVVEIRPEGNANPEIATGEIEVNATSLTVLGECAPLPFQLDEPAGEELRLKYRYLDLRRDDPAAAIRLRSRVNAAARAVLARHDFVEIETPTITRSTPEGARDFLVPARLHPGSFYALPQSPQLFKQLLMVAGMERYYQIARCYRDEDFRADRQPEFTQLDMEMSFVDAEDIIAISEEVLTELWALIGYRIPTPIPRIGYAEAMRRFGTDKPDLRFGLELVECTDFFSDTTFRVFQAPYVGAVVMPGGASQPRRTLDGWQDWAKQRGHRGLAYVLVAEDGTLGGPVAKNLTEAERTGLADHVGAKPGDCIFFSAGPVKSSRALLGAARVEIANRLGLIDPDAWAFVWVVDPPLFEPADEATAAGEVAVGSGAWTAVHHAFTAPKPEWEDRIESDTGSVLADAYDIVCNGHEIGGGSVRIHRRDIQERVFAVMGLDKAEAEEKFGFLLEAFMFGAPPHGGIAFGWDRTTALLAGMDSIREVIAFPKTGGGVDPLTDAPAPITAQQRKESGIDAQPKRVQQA
Below: a set of entries, each annotated with reported Percent Effect.
Field format: number, assumed %, no unit text.

QUERY: Could you share which Percent Effect value was measured for c1ccc(-c2nc(CN3CCCC3Cn3cncn3)cs2)cc1 (stereo not drawn) ?
RESULT: 0.143

QUERY: And CNS(=O)(=O)c1cccc(C(C)NCc2cccc(OC)c2)c1 (stereo not drawn) ?
RESULT: 0.915

QUERY: And Cc1ccc(C(CNCc2ccncc2)N2CCOCC2)s1 (stereo not drawn) ?
RESULT: 2.18

More entries:
QUERY: Could you share which Percent Effect value was measured for "COc1cccc(CNc2c(C)cnc3c2c(=O)n(C)c(=O)n3C)c1" ?
RESULT: -3.02

QUERY: And CC(O)CN1CCN(C(=O)c2ccn(-c3cccc(Cl)c3)n2)CC1 (stereo not drawn) ?
RESULT: -5.25

QUERY: And COCCc1noc(CN2CCCCC2Cn2cc(C)cn2)n1 (stereo not drawn) ?
RESULT: -2.46

QUERY: And CC(=O)Nc1nc(C(=O)N2CCCC(n3nc(C)cc3C)C2)cs1 (stereo not drawn) ?
RESULT: -0.815

QUERY: And Fc1ccc2c(c1)C(NCc1nnc3n1CCCCC3)CCCO2 (stereo not drawn) ?
RESULT: -3.62

QUERY: And CC1(NC(=O)Cc2csc(C(C)(C)C)n2)CCS(=O)(=O)C1 (stereo not drawn) ?
RESULT: -6.9

QUERY: And "NC(=O)NCC(=O)N1C[C@H]2CC[C@@H]1CN(Cc1ccccc1)C2" ?
RESULT: 15.6

QUERY: And CC(NC(=O)NCc1cccnc1N1CCCCC1)c1nccs1 (stereo not drawn) ?
RESULT: -6.16

QUERY: And Cc1ccc(NC(=O)N2CCOC(C)C2)cc1Cl (stereo not drawn) ?
RESULT: 0.866

QUERY: And CC(C(=O)N1CCCN(Cc2ccc(C#N)cc2)CC1)n1ccnc1 (stereo not drawn) ?
RESULT: -0.834
